Provide the recorded fraction unbound at 5 h for the entries that follow.
assayMethodText: in vitro
details: SD, HW or BN, rat, plasma
Answers are plain numbers.

Would you please look over these solved cases?
O=C(Nc1ccccc1F)N[C@H]1N=C(c2ccccc2)c2ccccc2NC1=O    0.0274
Cc1ccc(NC(=O)c2cccc(C(C)(C)C#N)c2)cc1Nc1ccc2ncn(C)c(=O)c2c1    0.5
CC(=O)N[C@@H](Cc1ccccc1)C(=O)N[C@H]1CCCNC(=O)[C@H](CCCNC(=N)N)NC(=O)[C@H](Cc2c[nH]c3ccccc23)NC(=O)[C@@H](CC2CCCCC2)NC(=O)[C@@H]2CCCN2C1=O    0.163
C[C@@H]1CN(C(=O)N[C@H](Cc2ccc(F)cc2)C(=O)N2CCC(C(=O)NC(C)(C)C)(C3CCCCC3)CC2)C[C@H](C)N1    0.0872
COc1ccc(CCC[N+](C)(CCCc2ccc(OC)cc2)CCNC(=O)c2nc(Cl)c(N)nc2N)cc1    0.157
CN(C)CCOc1cc(NS(=O)(=O)c2c(Cl)cc(C(F)(F)F)cc2Cl)ccc1Cl    0.0024
CCN(CC)CCN1C(=O)[C@@](O)(c2ccccc2Cl)c2c1cc(C(N)=O)cc2C(F)(F)F    0.212
Cc1nc(C(F)(F)F)ccc1C(=O)Nc1ccc(Cl)c(-c2nc3ccccc3[nH]2)c1    0.0948
O=C(NCc1ccc(OC(F)(F)F)cc1)C1c2ccccc2C(=O)N1CCc1ncc(F)cn1 (stereo unspecified)    0.0928
Clc1ccc2c(c1)CCc1cccnc1C2=C1CCNCC1    0.145

Next, consider the following compound.
# get_value(readout='fraction unbound at 5 h', item= "Nc1nc(O)c(Cl)c(-c2ccccc2)n1" )
0.0661

* * *

Provide the recorded microsomal CLint for the entries that follow.
assayMethodText: in vitro
details: human, liver microsomes

O=C(O)[C@H](Cc1ccccc1)N1CCC(CN2CCC(Oc3ccc(CO)c(Cl)c3)CC2)CC1    < 3 µL/min/mg
Cc1ccc(CO)cc1N(c1ccnc(Nc2cc(N3CCOCC3)cc(S(C)(=O)=O)c2)n1)C(C)C    > 150 µL/min/mg
O=c1c2sccc2n(CC2COc3ccccc3O2)c(=O)n1O (stereo not given)    < 3 µL/min/mg
CNCCC(Oc1ccccc1OC)c1ccccc1 (stereo not given)    < 3 µL/min/mg

Batch request: microsomal CLint for each of the following molecules.
1. CN(CCOc1ccccc1-c1cc(C(N)=O)c(NC(N)=O)s1)Cc1ccccc1
2. O=C(O)[C@H](Cc1ccccc1)N1CCC(CN2CCC(Oc3ccc(Cl)c(Cl)c3)CC2)CC1
3. O=C(O)c1cccc(C(=O)N2CCC(N3CCC(Oc4ccc(Cl)c(Cl)c4)CC3)CC2)c1

> 150 µL/min/mg
< 3 µL/min/mg
< 3 µL/min/mg

Batch request: microsomal CLint for each of the following molecules.
1. C[C@@H](NC(=O)C1CCNCC1)c1ccc(Nc2ncc3cc(-c4ccncc4)ccc3n2)cc1
2. Cc1ccc2c(c1)c(-c1ccnc3c(C#N)cccc13)c(C)n2CC(=O)O
3. Cc1ccc(S(=O)(=O)Nc2c(C(=O)NC(C)C(C)(C)C)c(C)nn2-c2ccccc2)cc1 (stereo not given)

1. 4.17 µL/min/mg
2. < 3 µL/min/mg
3. 31 µL/min/mg

Batch request: microsomal CLint for each of the following molecules.
1. O=C1Nc2ccc(Cl)cc2C(c2ccccc2Cl)=NC1O (stereo not given)
2. CC1(C)[C@@H]2CC[C@@]1(CS(=O)(=O)N1CCN(c3ccc(C(F)(F)F)cn3)CC1)C(=O)C2
3. NC(=O)c1sc(-c2ccc(Cl)cc2)cc1N
4. COc1ccc2c(Oc3ccc(CC(=O)Nc4cn(C)nc4C)c(OC)c3)ccnc2c1
5. N#Cc1ccc(Nc2nccc(NC3CC3)n2)cc1
6. COCCNc1nc(NCc2ccccc2F)c2sccc2n1
7. Oc1nc2c(O)ccc(CCNCCOCCCOCCc3ccccc3)c2s1

1: 7.94 µL/min/mg; 2: 51 µL/min/mg; 3: 31 µL/min/mg; 4: 24.6 µL/min/mg; 5: 45 µL/min/mg; 6: > 150 µL/min/mg; 7: 56 µL/min/mg

Batch request: microsomal CLint for each of the following molecules.
1. Cc1ccc2c(c1)c([S+]([O-])c1ccc(Cl)cc1)c(C)n2CC(=O)O (stereo not given)
2. CC(C)Cn1c(=O)n(C)c(=O)c2c(C(=O)N3CC[C@@H](O)C3)c(Cc3c[nH]c4ccccc34)sc21
3. COCCNCc1ccc(-c2cc(C(N)=O)c(NC(N)=O)s2)cc1
4. CC1(C)[C@@H]2CC[C@@]1(CS(=O)(=O)NC1CCN(c3ccc(C(F)(F)F)cn3)CC1)C(=O)C2
5. CN(C(=O)Cc1ccc(F)cc1)C1CCN(CCC(c2ccccc2)c2ccccc2)CC1
6. COCC(C)n1nc(C)c(C(=O)N[C@@H](C)C(C)(C)C)c1NS(=O)(=O)c1ccc(C)cc1 (stereo not given in full)

["3 µL/min/mg", "107 µL/min/mg", "3 µL/min/mg", "75 µL/min/mg", "< 3 µL/min/mg", "6 µL/min/mg"]

Batch request: microsomal CLint for each of the following molecules.
1. C[C@@H]1CN(c2ccc(F)cc2C(F)(F)F)CCN1S(=O)(=O)c1ccc(C(N)=O)cc1Cl
2. CN(C)c1ccccc1S(=O)(=O)NC(=O)N1CCC(N2CCC(Oc3ccc(Cl)c(Cl)c3)CC2)CC1

1. 6.31 µL/min/mg
2. 33 µL/min/mg

* * *

assayMethodText: in vitro
details: hepatocytes
quantityName: log10(hepatocyte CLint) (log10 of the value in µL/min/1e6 cells)
Log scale reminder: hepatocyte CLint in µL/min/1e6 cells, then log10 taken.

CCN(CC)CCN1C(=O)[C@@](O)(c2ccccc2Cl)c2c1cc(C(N)=O)cc2C(F)(F)F    1.75
CS(=O)(=O)c1ccc(-c2cnc(N)c(-c3ccc(C(F)(F)F)nc3)c2)cc1 [MMV-048]    0.68

Batch request: log10(hepatocyte CLint) for each of the following molecules.
1. CCCN(CCNCCc1ccc(O)c2[nH]c(=O)sc12)C(=O)CCOCCc1ccccc1
2. O=C(NCc1ccccc1)c1cc(-c2ccco2)on1
3. Cc1ccc(S(=O)(=O)Nc2c(C(=O)N[C@@H](C)C(C)(C)C)c(C)nn2C2CCS(=O)(=O)CC2)cc1
4. O=c1[nH]c2c(O)ccc([C@@H](O)CNCCc3cccc(CNCCc4c(Cl)cccc4Cl)c3)c2s1

1. 2.03
2. 2.14
3. 0.60
4. 1.89

Batch request: log10(hepatocyte CLint) for each of the following molecules.
1. CCN(CC)CCn1c2ccccc2c2cnc(N)c(C#N)c21
2. Cc1c(Sc2ccc(Cl)cc2)c2cc(F)ccc2n1CC(=O)O

1: 1.89; 2: 1.53

Batch request: log10(hepatocyte CLint) for each of the following molecules.
1. CSc1c(C(=O)NC2C3CC4CC(C3)CC2C4)cnn1-c1ccc(C(=O)O)cc1 (configuration not stated)
2. c1ccc(Nc2nc3c(s2)CCCc2[nH]ncc2-3)nc1
3. COc1ccc(NC(=O)CCc2c(C)nc3nc(C)nn3c2C)cc1

1: 1.09; 2: 1.56; 3: 0.49

* * *

assayMethodText: in vitro
details: mouse, plasma
Provide the recorded fraction unbound at 5 h for the entries that follow.
Give bare numbers.

Would you please look over these solved cases?
COc1cc(Nc2nc3c(c(Cc4ccccc4)n2)CN(CCO)CC3)ccc1-n1cnc(C)c1    0.02
CCOc1cc2c(c(F)c1OCC)C(=N)N(CC(=O)c1cc(N3CCOCC3)c(OC)c(C(C)(C)C)c1)C2 [ATOPAXAR]    0.0025
O=C(Nc1ccc(CN2CCNCC2)cc1-c1nc2ccccc2[nH]1)c1cnc2ccccc2n1    0.0033
CC(C)NC(=O)c1nn(-c2ccc(Cl)cc2)c(=O)c2c(N)scc12    0.0219
c1ccc([C@@H]([C@H](c2ccccc2)N2CCCCC2)N2CCCCC2)cc1    0.262

Batch request: fraction unbound at 5 h for each of the following compounds.
1. CC#Cc1cncc(-c2csc([C@]3(C)CC(=O)N(C)C(N)=N3)c2)c1
2. CS(=O)(=O)N1CCC(NC(=O)NC23CC4CC(CC(C4)C2)C3)CC1

1: 0.17; 2: 0.17

Batch request: fraction unbound at 5 h for each of the following compounds.
1. O=C(CC1CCN(Cc2ccn(-c3ccc(C(F)(F)F)cc3)c2)CC1)NC(c1ccncc1)c1ccc(Cl)cc1 (configuration not stated)
2. CCc1c(C(=O)C(N)=O)c2c(OCC(=O)OC)cccc2n1Cc1ccccc1 [VARESPLADIB METHYL]
3. Cc1ncccc1Oc1ncnc(OC2CCN(C(=O)OC(C)C)CC2)c1C

0.0051
0.232
0.0149

Batch request: fraction unbound at 5 h for each of the following compounds.
1. CCNc1cc(C(=O)N[C@@H](Cc2ccccc2)[C@H](O)CNCc2cccc(C(F)(F)F)c2)c(F)c(N2CCCCS2(=O)=O)c1
2. CCC#Cc1cncc(-c2ccc3c(c2)C2(N=C(C)C(N)=N2)[C@]2(CC[C@H](OC)CC2)C3)c1 (some centres not stated)

1. 0.016
2. 0.02
